Consider compounds characterized by their pIC50 with HSD17B2 (Homo sapiens (Human)).
Sequence (P37059 other isoform, or with tags, fused parts or gaps): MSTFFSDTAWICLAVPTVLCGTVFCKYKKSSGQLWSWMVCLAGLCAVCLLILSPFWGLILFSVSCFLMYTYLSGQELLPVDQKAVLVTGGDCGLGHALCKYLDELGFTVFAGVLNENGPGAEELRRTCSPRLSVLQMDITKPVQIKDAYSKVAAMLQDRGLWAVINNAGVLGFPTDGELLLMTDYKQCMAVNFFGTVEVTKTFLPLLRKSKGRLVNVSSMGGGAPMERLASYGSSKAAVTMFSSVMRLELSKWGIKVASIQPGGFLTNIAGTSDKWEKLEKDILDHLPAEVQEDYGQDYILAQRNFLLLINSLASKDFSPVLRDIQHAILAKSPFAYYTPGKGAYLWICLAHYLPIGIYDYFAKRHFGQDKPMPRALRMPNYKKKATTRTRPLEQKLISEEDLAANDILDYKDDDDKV
// pIC50 is dimensionless: -log10 of concentration (M)

Example cases with answers are listed next.
CC[C@@H]1Oc2cc(C)ccc2[C@H]1NC(=O)c1ccc(C(F)(F)F)[nH]c1=O [Compound 360] ... 4.64
Cc1ccc2c(c1)Oc1cc(C)ccc1C2NC(=O)c1cc(-c2ccccn2)c(C(F)(F)F)[nH]c1=O [Compound 510] ... 5.26
COc1ccc(C(C)(NC(=O)c2ccc(C(F)(F)F)[nH]c2=O)c2ccc(OC)cc2)cc1 [Compound 20A] ... 5.64

Lab note: next compound to report on.
Entry CCCc1cc(C(=O)NC2c3ccc(Cl)cc3Oc3cc(Cl)ccc32)c(=O)[nH]c1C(F)(F)F [Compound 178] ; assay system HSD17B2 (Homo sapiens (Human)); pIC50 recorded at 4.19

---

Molecular target: HSD17B13 (Homo sapiens (Human))
Sequence (Q7Z5P4 other isoform, or with tags, fused parts or gaps): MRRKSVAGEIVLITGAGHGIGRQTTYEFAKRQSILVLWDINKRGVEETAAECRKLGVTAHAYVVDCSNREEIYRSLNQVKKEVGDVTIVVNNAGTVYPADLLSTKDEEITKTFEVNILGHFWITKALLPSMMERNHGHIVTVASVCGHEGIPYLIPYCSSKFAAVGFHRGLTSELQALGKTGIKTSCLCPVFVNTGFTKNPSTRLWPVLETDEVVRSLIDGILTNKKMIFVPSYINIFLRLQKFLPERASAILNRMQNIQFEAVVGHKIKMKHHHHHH
Assay: HSD17B13 enzymatic inhibition assay (150 nM or 50 nM HSD17B13)
Format: biochemical
Details: 50 nM HSD17B13; read-out: Inhibition of 50 nM of HSD17B13 IC50
Catalogue of pIC50 values
# log scale: pIC50 equals minus log10 of the concentration in mol/L

Cc1ccc2c(c1)Oc1cc(C)ccc1C2NC(=O)c1cc(C2CCCCC2)c(C(F)(F)F)[nH]c1=O ... 7.52
O=C(NC(c1ccc(F)cc1)c1ccc(F)cc1)c1ccc(C(F)(F)F)[nH]c1=O ... 5.79
C=Cc1cccc(C(NC(=O)c2ccc(C(F)(F)F)[nH]c2=O)c2ccccc2)c1 (centres unmarked) ... 6.00

I looked up O=C(NC(c1ccccc1)c1ccc(-c2ccccc2)cc1)c1ccc(C(F)(F)F)[nH]c1=O (centres unmarked) and its pIC50 for HSD17B13 (Homo sapiens (Human)) was 6.13

The value of pIC50 recorded for CCC[C@@H]1C[C@H](NC(=O)c2ccc(C(F)(F)F)[nH]c2=O)c2ccc(C)cc2N1 when tested on HSD17B13 (Homo sapiens (Human)) reads 6.43

Tested on HSD17B13 (Homo sapiens (Human)), the item Cc1ccc2c(c1)Sc1cc(C)ccc1C2NC(=O)c1cc(Br)c(C(F)(F)F)[nH]c1=O showed pIC50 equal to 7.30

Tested on HSD17B13 (Homo sapiens (Human)), the item Cc1ccc(C(NC(=O)c2ccc(C(F)(F)F)[nH]c2=O)c2ccc(C)cc2)cc1 showed pIC50 equal to 6.59

Sample C=Cc1cc(C(=O)NC2c3ccc(C)cc3Sc3cc(C)ccc32)c(=O)[nH]c1C(F)(F)F , system: HSD17B13 (Homo sapiens (Human)). Its pIC50 is 7.40

---

# microsomal CLint at 1 h, 1 µM per record follows
Assay: Microsome stability assay, human liver microsomes
Assay type: in vitro ADME
Details: human, human liver microsomes, pooled; 1 μM compound, 0.5 mg/mL microsomal protein, NADPH, 37° C.; read-out: Microsome Stability Human liver microsomes Cl
Please give a number only; it is taken to be in µL/min/mg.

O=C(NC1c2ccccc2-c2ccccc21)c1ccc(C(F)(F)F)[nH]c1=O [Compound 25] ... 265
CCC1Cc2cc(OC)ccc2C(NC(=O)c2ccc(C(F)(F)F)[nH]c2=O)C1 (stereo not shown) [Compound 390] ... 151
O=C(NC(c1ccccc1)c1ccccc1)c1ccc(C(F)(F)F)[nH]c1=O [Compound 1] ... 13.4

# evaluate next
microsomal CLint at 1 h, 1 µM for Cc1cccc(C(NC(=O)c2ccc(C(F)(F)F)[nH]c2=O)c2ccccc2)c1 (stereo not shown) [Compound 490] is 203
